target: TBK1 (Homo sapiens); construct: His-tag; made in house; host or cells: Sf9 insect cells; experiment: In-vitro TBK1 kinase assay ([γ33]ATP filter-plate); format: biochemical; settings: text bins; read-out: IC50 for inhibition of the kinase activity of TBK1
Sequence (Q9UHD2 whole entry): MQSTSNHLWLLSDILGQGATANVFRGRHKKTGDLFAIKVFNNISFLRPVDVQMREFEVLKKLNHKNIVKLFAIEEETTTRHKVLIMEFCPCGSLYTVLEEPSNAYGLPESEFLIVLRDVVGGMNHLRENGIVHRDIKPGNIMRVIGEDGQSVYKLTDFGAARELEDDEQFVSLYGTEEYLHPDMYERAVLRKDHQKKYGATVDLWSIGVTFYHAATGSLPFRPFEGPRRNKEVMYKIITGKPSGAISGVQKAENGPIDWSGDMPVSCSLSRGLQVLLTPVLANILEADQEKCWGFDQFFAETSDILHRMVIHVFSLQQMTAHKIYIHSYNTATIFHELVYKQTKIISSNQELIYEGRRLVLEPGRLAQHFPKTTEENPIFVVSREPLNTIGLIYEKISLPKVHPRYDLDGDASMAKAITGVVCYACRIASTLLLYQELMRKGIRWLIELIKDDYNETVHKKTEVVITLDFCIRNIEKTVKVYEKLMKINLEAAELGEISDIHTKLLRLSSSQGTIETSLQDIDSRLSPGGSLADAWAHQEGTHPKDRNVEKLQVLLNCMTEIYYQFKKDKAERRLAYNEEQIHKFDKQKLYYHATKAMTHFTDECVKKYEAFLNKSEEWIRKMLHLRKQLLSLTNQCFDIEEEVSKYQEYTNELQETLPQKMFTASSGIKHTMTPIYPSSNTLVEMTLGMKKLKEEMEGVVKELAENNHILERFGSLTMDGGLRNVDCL
// values below are reported IC50
Measured attribute: IC50

• Cc1cc(Nc2nccc(-c3ccc(OC4CCOCC4)c(C#N)c3)n2)ccc1N1CCOCC1 = < 10 nM
• COc1ccc(-c2ccnc(Nc3ccc(OCCN4CCOCC4)c(OC)c3)n2)cc1C#N = 10 to 100 nM
• CN(C)C(=O)CN(C)c1ccc(Nc2nccc(-c3ccc(OC4CCOCC4)c(C#N)c3)n2)cc1 = < 10 nM
• CC(C)C(=O)Nc1ccc(-c2ccnc(Nc3cccc(CCO)c3)n2)cc1C#N = < 10 nM

---

Molecular target: TBK1 (Homo sapiens)
Construct: His-tag; made in house; host or cells: Sf9 insect cells
Assay: In-vitro TBK1 kinase assay ([γ33]ATP filter-plate)
Assay type: biochemical
Settings: text bins; read-out: IC50 for inhibition of the kinase activity of TBK1
Protocol: IKKε enzyme was produced as a His-tag fusion in Sf9 cells and used at a final concentration of […]. TBK1 enzyme was produced as a His-tag fusion in Sf9 cells and used at a final concentration of 0.1 μg/ml. […] After air drying, scintillant (PerkinElmer, Waltham, Mass.) was added and the plates were read on a PerkinElmer TopCount NXT instrument. […]
Recorded IC50 for the following compounds
Measured attribute: IC50

* COc1ccc(-c2ccnc(Nc3cccc(CN(C)CC(=O)N(C)C)c3)n2)cc1C#N [Example 67] | 10 to 100 nM
* CCN1CCN(Cc2ccc(Nc3nccc(-c4ccc(OC5CCN(C(=O)[C@H](C)O)CC5)c(C#N)c4)n3)cc2)CC1 [compound 508] | 10 to 100 nM
* N#Cc1cc(-c2ccnc(Nc3ccc(CN4CCOCC4)cc3)n2)ccc1OC1CCOCC1 [compound 510] | < 10 nM
* COc1ccc(Nc2nc(-c3cccc(C#N)c3)c3nc[nH]c3n2)cc1OC [compound 390] | 100 to 500 nM
* COc1cc(Nc2nccc(-c3ccc(OC4CCOCC4)c(C#N)c3)n2)ccc1OCCN [Example 30] | < 10 nM
* CN(C)c1cccc(Nc2nccc(-c3ccc(OC4CCOCC4)c(C#N)c3)n2)c1 [compound 539] | < 10 nM
* N#Cc1cc(-c2ccnc(Nc3ccc(N4CCOCC4)cc3)n2)ccc1NC(=O)CC(F)(F)F [Example 93] | < 10 nM
* COc1cc(Nc2nccc(-c3ccc(O[C@@H]4CCN(C(=O)CO)C4)c(C#N)c3)n2)ccc1N1CCOCC1 [compound 588] | < 10 nM
* N#Cc1cc(-c2ccnc(Nc3ccc(N4CCOCC4)cc3)n2)ccc1OC1CCN(C(=O)CN)CC1 [Example 268] | < 10 nM
* COC(=O)c1ccc(Nc2nccc(-c3ccc(OC4CCN(C(=O)[C@H](C)O)CC4)c(C#N)c3)n2)cc1OC [compound 324] | 10 to 100 nM
* COc1cc(Nc2nccc(-c3ccc(OC4CCN(C(=O)CO)C4)c(C#N)c3)n2)ccc1N1CCOCC1 (stereo not shown) [Example 223] | < 10 nM
* COc1ccc(Nc2nccc(-c3cccc(C#N)c3)n2)cc1Cl [compound 318] | 10 to 100 nM
* CC1(C)CC1C(=O)Nc1ccc(-c2ccnc(Nc3ccc(N4CCOCC4)cc3)n2)cc1C#N (stereo not shown) [compound 554] | < 10 nM
* COc1ccc(-c2ccnc(Nc3ccc(OC4CCN(C)CC4)c(OC)c3)n2)cc1C#N [compound 302] | 10 to 100 nM
* CCOC1CN(C(=O)c2ccc(Nc3nccc(-c4ccc(OC5CCOCC5)c(C#N)c4)n3)cc2OC)C1 [compound 599] | < 10 nM
* N#Cc1cc(-c2ccnc(Nc3ccc(N4CCOCC4)cc3)n2)ccc1OCCCNC(=O)CO [Example 181] | < 10 nM
